assayed_target: UniProtKB Q96EB6
Sequence (Q96EB6 1-747): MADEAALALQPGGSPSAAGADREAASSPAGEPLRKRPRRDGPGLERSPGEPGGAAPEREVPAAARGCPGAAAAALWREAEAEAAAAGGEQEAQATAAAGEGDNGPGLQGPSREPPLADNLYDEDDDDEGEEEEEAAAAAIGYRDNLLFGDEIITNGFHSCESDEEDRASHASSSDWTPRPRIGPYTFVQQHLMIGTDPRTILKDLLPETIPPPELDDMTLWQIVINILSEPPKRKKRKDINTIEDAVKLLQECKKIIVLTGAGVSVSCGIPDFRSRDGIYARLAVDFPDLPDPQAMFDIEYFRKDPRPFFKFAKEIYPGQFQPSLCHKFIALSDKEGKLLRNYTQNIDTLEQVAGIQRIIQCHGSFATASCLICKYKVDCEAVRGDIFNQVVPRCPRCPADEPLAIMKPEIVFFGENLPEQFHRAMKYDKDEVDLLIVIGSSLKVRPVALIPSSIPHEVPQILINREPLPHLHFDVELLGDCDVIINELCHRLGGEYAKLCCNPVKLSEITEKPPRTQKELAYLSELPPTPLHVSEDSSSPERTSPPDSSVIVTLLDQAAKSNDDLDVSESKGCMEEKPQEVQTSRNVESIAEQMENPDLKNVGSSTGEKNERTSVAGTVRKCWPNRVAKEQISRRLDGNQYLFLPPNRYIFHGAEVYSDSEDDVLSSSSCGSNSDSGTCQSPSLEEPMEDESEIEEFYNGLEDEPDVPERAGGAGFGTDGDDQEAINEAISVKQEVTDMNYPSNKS
test_summary: TAMRA based mass spectrometry assay of SIRT1 activity
Assay type: biochemical
condition_details: percent maximum fold activation of SIRT1; TAMRA peptide substrate; read-out: TAMRA % Fold Act
# Emax per record follows

{"compound": "O=C(Nc1ncc(N2CCOCC2)s1)c1cnc2ccc(-c3ccccc3C(F)(F)F)nn12", "Emax": "≥ 350%"}
{"compound": "O=C(Nc1cnc2ccc(-c3ccccc3C(F)(F)F)nn12)c1ncccn1", "Emax": "≥ 350%"}
{"compound": "O=C(Nc1cncnc1)c1cnc2ccc(-c3ccccc3C(F)(F)F)nn12", "Emax": "< 350%"}
{"compound": "O=C(Nc1nccs1)c1cnc2ccc(-c3cccc(C(F)(F)F)c3)nn12", "Emax": "< 350%"}
{"compound": "O=C(Nc1ncc(CN2CCOCC2)s1)c1cnc2ccc(-c3ccccc3C(F)(F)F)nn12", "Emax": "< 350%"}
{"compound": "O=C(Nc1cccc(N2CCCC2)n1)c1cnc2ccc(-c3ccccc3C(F)F)nn12", "Emax": "≥ 350%"}
{"compound": "CS(=O)(=O)c1ccccc1-c1ccc2ncc(C(=O)Nc3cccnc3)n2n1", "Emax": "< 350%"}
{"compound": "O=C(Nc1cccc(CN2CCOCC2)n1)c1cnc2ccc(-c3cccc(F)c3F)nn12", "Emax": "≥ 350%"}
{"compound": "O=C(Nc1cccc(CN2CCOCC2)n1)c1cnc2ccc(-c3ccc(F)cc3F)nn12", "Emax": "< 350%"}
{"compound": "Cc1nc2ccc(-c3ccccc3C(F)(F)F)nn2c1C(=O)Nc1cccc(N2CCCC2)n1", "Emax": "≥ 350%"}
{"compound": "CN(C)c1cccc(NC(=O)c2cnc3ccc(-c4ccccc4C(F)(F)F)nn23)n1", "Emax": "≥ 350%"}
{"compound": "Cc1ncccc1NC(=O)c1cnc2ccc(-c3ccccc3C(F)(F)F)nn12", "Emax": "< 350%"}
{"compound": "O=C(Nc1cccc(CN2CCOCC2)n1)c1cnc2ccc(-c3cc(F)cc(F)c3)nn12", "Emax": "< 350%"}
{"compound": "Cc1cccc(NC(=O)c2cnc3ccc(-c4ccccc4C(F)(F)F)nn23)n1", "Emax": "≥ 350%"}
{"compound": "Cn1cc(NC(=O)c2cnc3ccc(-c4ccccc4C(F)(F)F)nn23)cn1", "Emax": "≥ 350%"}
{"compound": "Cc1cc(OCC(O)CO)nc(NC(=O)c2cnc3ccc(-c4ccccc4C(F)(F)F)nn23)n1 (stereo not shown)", "Emax": "≥ 350%"}
{"compound": "O=C(Nc1ccnc(N2CCC2)c1)c1cnc2ccc(-c3cccc(F)c3Cl)nn12", "Emax": "< 350%"}
{"compound": "O=C(Nc1cccc(N2CCOCC2)n1)c1cnc2ccc(-c3ccccc3C(F)F)nn12", "Emax": "≥ 350%"}
{"compound": "O=C(Nc1ncco1)c1cnc2ccc(-c3ccccc3C(F)(F)F)nn12", "Emax": "< 350%"}
{"compound": "O=C(Nc1ccccn1)c1cnc2ccc(-c3cccc(OC(F)(F)F)c3)nn12", "Emax": "< 350%"}
{"compound": "O=C(Nc1cccc(N2CCC2)n1)c1cnc2ccc(-c3ccccc3C(F)(F)F)nn12", "Emax": "≥ 350%"}
{"compound": "O=C(Nc1cnccn1)c1cnc2ccc(-c3ccccc3Cl)nn12", "Emax": "< 350%"}
{"compound": "O=C(Nc1ccccn1)c1cnc2ccc(-c3cccc(C(F)(F)F)c3)nn12", "Emax": "< 350%"}
{"compound": "Cc1cc(NC(=O)c2cnc3ccc(-c4ccccc4C(F)(F)F)nn23)ccn1", "Emax": "≥ 350%"}
{"compound": "Cc1nc(C)c(-c2ccc3ncc(C(=O)Nc4cccc(N5CCOCC5)n4)n3n2)s1", "Emax": "< 350%"}
{"compound": "COc1ccnc(NC(=O)c2cnc3ccc(-c4ccccc4C(F)(F)F)nn23)n1", "Emax": "≥ 350%"}
{"compound": "O=C(Nc1cccc(CN2CCOCC2)n1)c1cnc2ccc(-c3cccc(F)c3Cl)nn12", "Emax": "≥ 350%"}
{"compound": "O=C(Nc1ccnc(N2CCC2)c1)c1cnc2ccc(-c3c(F)cccc3F)nn12", "Emax": "< 350%"}
{"compound": "O=C(Nc1cccc(CN2CCOCC2)n1)c1cnc2ccc(-c3cccc(F)c3)nn12", "Emax": "< 350%"}
{"compound": "O=C(Nc1cnc2ccc(-c3ccccc3C(F)(F)F)nn12)c1ccnc(CN2CCOCC2)c1", "Emax": "< 350%"}
{"compound": "O=C(Nc1nc(CN2CCOCC2)cs1)c1cnc2ccc(-c3cccc(C(F)(F)F)c3)nn12", "Emax": "≥ 350%"}
{"compound": "Cc1noc(C)c1-c1ccc2ncc(C(=O)Nc3ccnc(N4CCCC4)c3)n2n1", "Emax": "< 350%"}
{"compound": "Cc1ncccc1-c1ccc2ncc(C(=O)Nc3ccnc(N4CCC4)c3)n2n1", "Emax": "< 350%"}
{"compound": "Cn1cc(-c2ccc3ncc(C(=O)Nc4ccnc(N5CCCC5)c4)n3n2)cn1", "Emax": "< 350%"}

###

assayed_target: SIRT1 (Homo sapiens)
test_summary: Trp mass spectrometry assay of SIRT1 activity
Format: biochemical
condition_details: Trp peptide substrate; concentration giving 150% activation of SIRT1

{"compound": "Cc1nc2c(C)cc(-c3ccccc3C(F)(F)F)nn2c1NC(=O)c1cccc(O)n1 [Compound 590]", "Trp EC1.5": "C (EC1.5>25 μM)"}
{"compound": "Cc1nc2ccc(-c3ccccc3OC(F)(F)F)nn2c1C(=O)Nc1ccc(F)cn1 [Compound 472]", "Trp EC1.5": "C (EC1.5>25 μM)"}
{"compound": "Cc1cc2ncc(NC(=O)c3ccncn3)n2nc1-c1ccccc1C(F)(F)F [Compound 443]", "Trp EC1.5": "C (EC1.5>25 μM)"}
{"compound": "Cc1nn2ccc(-c3ccccc3C(F)(F)F)nc2c1C(=O)Nc1cccc(O)n1 [Compound 577]", "Trp EC1.5": "A (EC1.5<1 μM)"}
{"compound": "O=C(Nc1ncn2ccc(-c3ccccc3C(F)(F)F)nc12)c1ccccn1 [Compound 455]", "Trp EC1.5": "C (EC1.5>25 μM)"}
{"compound": "Cc1nc(NC(=O)c2c(C)nc3c(C)cc(-c4ccccc4C(F)(F)F)nn23)sc1C [Compound 457]", "Trp EC1.5": "A (EC1.5<1 μM)"}
{"compound": "Cc1cnc(NC(=O)c2cnn3ccc(-c4ccccc4C(F)(F)F)nc23)s1 [Compound 507]", "Trp EC1.5": "B (EC1.5 1-25 μM)"}
{"compound": "Cc1cc(NC(=O)c2cnc3ccc(-c4cccc(OCC(O)CO)c4)nn23)cc(C)n1 (stereo not shown) [Compound 418]", "Trp EC1.5": "C (EC1.5>25 μM)"}
{"compound": "Cc1nc2ccc(-c3ccccc3OC(F)(F)F)nn2c1C(=O)Nc1ccncc1F [Compound 466]", "Trp EC1.5": "A (EC1.5<1 μM)"}
{"compound": "Cc1cc(NC(=O)c2c(C)nc3c(C)cc(-c4ccccc4C(F)(F)F)nn23)nc(C)n1 [Compound 475]", "Trp EC1.5": "B (EC1.5 1-25 μM)"}
{"compound": "O=C(Nc1ncccn1)c1cnn2ccc(-c3ccccc3OC(F)(F)F)nc12 [Compound 559]", "Trp EC1.5": "B (EC1.5 1-25 μM)"}
{"compound": "Cc1ccnc(C(=O)Nc2cnn3ccc(-c4ccccc4C(F)(F)F)nc23)c1 [Compound 523]", "Trp EC1.5": "C (EC1.5>25 μM)"}
{"compound": "Cc1cc(NC(=O)c2cnc3ccc(-c4ccccc4OCC(O)CO)nn23)cc(C)n1 (stereo not shown) [Compound 415]", "Trp EC1.5": "B (EC1.5 1-25 μM)"}
{"compound": "COc1cccc(NC(=O)c2c(C)nn3ccc(-c4ccccc4C(F)(F)F)nc23)n1 [Compound 551]", "Trp EC1.5": "A (EC1.5<1 μM)"}
{"compound": "Cc1nc2ccc(-c3ccccc3C(F)(F)F)nn2c1C(=O)Nc1ccncn1 [Compound 461]", "Trp EC1.5": "B (EC1.5 1-25 μM)"}
{"compound": "Cc1cc(C)nc(C(=O)Nc2cnc3ccc(-c4ccccc4C(F)(F)F)nn23)c1 [Compound 436]", "Trp EC1.5": "C (EC1.5>25 μM)"}
{"compound": "Cc1nc2ccc(-c3ccccc3OC(F)(F)F)nn2c1C(=O)Nc1ccncn1 [Compound 469]", "Trp EC1.5": "B (EC1.5 1-25 μM)"}
{"compound": "COc1cccc(C(=O)Nc2cnc3ccc(-c4ccccc4C(F)(F)F)nn23)n1 [Compound 437]", "Trp EC1.5": "A (EC1.5<1 μM)"}
{"compound": "Cc1nn2ccc(-c3ccccc3C(F)(F)F)nc2c1NC(=O)c1ccncn1 [Compound 572]", "Trp EC1.5": "C (EC1.5>25 μM)"}
{"compound": "COc1cccc(NC(=O)c2cnn3ccc(-c4ccccc4C(F)(F)F)nc23)n1 [Compound 486]", "Trp EC1.5": "A (EC1.5<1 μM)"}
{"compound": "Cc1nc2ccc(-c3cccc(OC[C@H](O)CO)c3)nn2c1C(=O)Nc1ccncn1 [Compound 594]", "Trp EC1.5": "B (EC1.5 1-25 μM)"}
{"compound": "Cc1cc(-c2ccccc2C(F)(F)F)nn2c(C(=O)Nc3ccncc3F)cnc12 [Compound 541]", "Trp EC1.5": "B (EC1.5 1-25 μM)"}
{"compound": "Cc1nn2ccc(-c3ccccc3C(F)(F)F)nc2c1NC(=O)c1cnccn1 [Compound 571]", "Trp EC1.5": "B (EC1.5 1-25 μM)"}
{"compound": "Cc1nc2c(C)cc(-c3ccccc3C(F)(F)F)nn2c1C(=O)NCc1ccccn1 [Compound 561]", "Trp EC1.5": "B (EC1.5 1-25 μM)"}
{"compound": "O=C(Nc1ccccn1)c1cnn2ccc(-c3ccccc3OC(F)(F)F)nc12 [Compound 529]", "Trp EC1.5": "A (EC1.5<1 μM)"}
{"compound": "O=C(Nc1cccnn1)c1cnn2ccc(-c3ccccc3C(F)(F)F)nc12 [Compound 505]", "Trp EC1.5": "B (EC1.5 1-25 μM)"}
{"compound": "Cc1nn2ccc(-c3ccccc3C(F)(F)F)nc2c1C(=O)Nc1cccc(N2CCOCC2)n1 [Compound 552]", "Trp EC1.5": "A (EC1.5<1 μM)"}
{"compound": "Cc1ccnc(NC(=O)c2cnc3ccc(-c4ccccc4OC(F)(F)F)nn23)n1 [Compound 401]", "Trp EC1.5": "A (EC1.5<1 μM)"}
{"compound": "Cc1cc(C)nc(NC(=O)c2cnc3c(C)cc(-c4ccccc4C(F)(F)F)nn23)c1 [Compound 516]", "Trp EC1.5": "B (EC1.5 1-25 μM)"}
{"compound": "Cc1nc(C(=O)Nc2cnc3c(C)cc(-c4ccccc4C(F)(F)F)nn23)cs1 [Compound 412]", "Trp EC1.5": "A (EC1.5<1 μM)"}
{"compound": "O=C(Nc1cccc(O)n1)c1cnn2ccc(-c3ccccc3OC(F)(F)F)nc12 [Compound 580]", "Trp EC1.5": "A (EC1.5<1 μM)"}
{"compound": "Cc1cnc(C(=O)Nc2cnc3c(C)cc(-c4ccccc4C(F)(F)F)nn23)s1 [Compound 424]", "Trp EC1.5": "B (EC1.5 1-25 μM)"}
{"compound": "Cc1cc(NC(=O)c2cnc3ccc(-c4ccccc4C(F)(F)F)nn23)cc(OCC(O)CO)n1 (stereo not shown) [Compound 406]", "Trp EC1.5": "A (EC1.5<1 μM)"}
{"compound": "Cc1nc2c(C)cc(-c3ccccc3C(F)(F)F)nn2c1C(=O)Nc1cnccn1 [Compound 586]", "Trp EC1.5": "A (EC1.5<1 μM)"}

These data points were gathered from patent US9957271B2.
